Reference for the values: patent US20110152166A1

molecular target: PDK1 50-360 (Homo sapiens); construct: the catalytic domain of PDK1 (50-359) produced in SF9 insect cells; His-tag (pFastbac-HT, TEV site) (N, cleaved yes); made in house; host or cells: Sf9 insect cells (baculovirus, pFastbac-HT); experiment: Isothermal Titration Calorimetry; type: binding; details: ITC, one type of sites, pH 7.5, 3% DMSO
Sequence (O15530 50-359): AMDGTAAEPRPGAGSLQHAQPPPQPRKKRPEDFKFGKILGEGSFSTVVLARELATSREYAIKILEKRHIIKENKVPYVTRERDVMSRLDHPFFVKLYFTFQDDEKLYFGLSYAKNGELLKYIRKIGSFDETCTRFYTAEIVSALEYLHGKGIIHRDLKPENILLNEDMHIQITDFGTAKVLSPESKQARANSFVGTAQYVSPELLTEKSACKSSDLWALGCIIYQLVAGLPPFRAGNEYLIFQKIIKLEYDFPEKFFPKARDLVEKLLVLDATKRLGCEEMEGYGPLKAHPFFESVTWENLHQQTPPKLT
experimental_readout: pKd
# pKd is unitless: minus log10 of the molar concentration; print number only

Lookup: I have this compound here, O=C(O)CSC(CC(=O)c1ccc(Cl)cc1)c1ccccc1 (stereo not shown) , and I need its recorded pKd.
Found: 4.74
